Test system: SR
Test: NCI tumour cell line growth inhibition, 48 h
Calls of active or inactive are those of the source. Rule as the data show it: active = GI50 up to about 1.1 µM and inactive = higher.
observable: GI50

1. Oc1ccc2ccccc2c1/N=N/c1ccc(/N=N/c2ccccc2)cc1 | 23.6 µM (inactive)
2. CC1(C)/C(=N\O)C2(OS(=O)(=O)C(F)(F)F)CCC1C2 (stereo not given) | 55.1 µM (inactive)
3. CC(=O)O/N=C(Cl)/C(Cl)=N/OC(C)=O | > 100 µM (inactive)
4. [N-]=[N+]=Nc1ccccc1C(=O)N1C(=O)c2ccccc2C(=O)N(C(=O)c2ccccc2N=[N+]=[N-])c2ccccc21 | 38.8 µM (inactive)
5. CC(C)(C)n1[nH]c(=O)n(C(C)(C)C)c1=O | > 100 µM (inactive)

----------
Test system: SK-MEL-28
Assay: NCI tumour cell line growth inhibition, 48 h
Calls of active or inactive are those of the source. No stated cut-off is given here; in the data, active = GI50 up to about 1.1 µM and inactive = higher. Where a SMILES comes first, the peptide text is derived from it. The star is where a group is joined. OSu = O=C1CCC(=O)N1O*; OBn = c1ccc(CO*)cc1; Bn = c1ccc(C*)cc1
observable: GI50

1) CS(=O)(=O)c1nc(-c2cc3c(c(S(C)(=O)=O)n2)CCC3)cc2c1CCCC2 | > 100 µM (inactive)
2) O=C1C=C/C(=N\c2ccc3c(c2)C(Br)c2ccccc2-3)O1 (stereo not drawn) | > 100 µM (inactive)
3) Oc1cc(Cc2ccccc2)c(Cc2ccccc2)cc1O | > 10 µM (inactive)
4) C#CC1(O)CCC2[C@@H]3CCc4cc(Oc5nc(F)nc(-c6c7ccccc7c(SCC)n6CCC)n5)ccc4C3CC[C@@]21C (stereo partly drawn) | 50.7 µM (inactive)
5) CC(C)CC(NC(=O)C(N)CCC(=O)OCc1ccccc1)C(=O)NC(COCc1ccccc1)C(=O)NC(Cc1ccccc1)C(=O)ON1C(=O)CCC1=O (stereo not drawn) (H-E(OBn)LS(Bn)F-OSu; configuration not given here) | 22.1 µM (inactive)
6) CC(C)C1=CC2=CC[C@@H]3[C@](C)(CCC[C@@]3(C)C(=O)O)[C@H]2CC1 [ABIETIC ACID] | > 59.3 µM (inactive)
7) CCCCCCCCCCCCCCCCCCCCCCC(=O)N[C@H]1CCc2cc(OC)c(OC)c(OC)c2-c2ccc(SC)c(=O)cc21 | 84.5 µM (inactive)
8) COC(=O)c1cc2c(c3c1CC(Cc1ccccc1)C3=O)CCC2 (stereo not drawn) | > 100 µM (inactive)

----------
Tested on: M14
Assay: NCI tumour cell line growth inhibition, 48 h
Activity calls are given as the source filed them. Cut-off read from the data, not from the text of the source: active = GI50 up to about 1.1 µM and inactive = higher.
Classes used: yes (1) (active), no (0) (inactive)

1. COC(=O)c1csc(-c2nc(CCNC(=O)OC(C)(C)C)sc2Br)n1 | no (0)
2. CCOP(=O)(C/C(O)=C1\C(=O)C(CCCCNC(=O)OC(C)(C)C)N(Cc2ccccc2)C1=O)OCC (stereo unspecified) | no (0)
3. Oc1cc(Cc2ccccc2)c(Cc2ccccc2)cc1O | no (0)
4. COc1ccc2nc3c(c(N)c2c1)C1CCC3C1(C)C (stereo unspecified) | no (0)
5. Cc1n(CC(C)C)c2c([n+]1C)C(=O)c1ccccc1C2=O | yes (1)
6. COc1cccc(NC(=S)Nn2c(C)nc3ccccc3c2=O)c1 | no (0)
7. COc1cc(Cn2c3ccccc3c3cc(C)c4c(c32)C=CC(C)(CCC=C(C)C)O4)cc2c1[nH]c1ccccc12 (stereo unspecified) [CHRESTFOLINE C] | no (0)
8. CCOC(=O)C1C(=O)CC(=O)C2CCCCC21 (stereo unspecified) | no (0)
9. ClCCN1CCO/C1=N/c1ccc2c(c1)CCCC2 | no (0)
10. CS(=O)(=O)O[C@H]1[C@H](O)c2ccccc2[C@@H]1N=[N+]=[N-] | no (0)
11. CC(C)(C)C1=C(Br)C(F)(C(C)(C)C)OP1(=O)c1ccccc1 (stereo unspecified) | no (0)
12. O=C(c1ccccc1)c1c(C(F)(F)F)[n+]([O-])c2cc(F)c(F)cc2[n+]1[O-] | yes (1)
13. O=C(O)CSc1cc(-c2ccccc2)nc2ccccc12 | no (0)
14. COc1ccc(-c2c(C3=NCCCN3)nnn2-c2ccccc2)cc1 | no (0)
15. CC1OC(n2ccc(=O)[nH]c2=O)C=C(OC(=O)c2ccccc2)C1=O (stereo unspecified) | no (0)
16. COc1ccc(O)c(/C(C)=N/NC(=S)N(C)C)c1 | no (0)
17. c1cc2nnc1SCCCSc1ccc(nn1)SCCCSc1ccc(nn1)SCCCS2 | no (0)
18. Oc1ccc(Cl)cc1C1=Nn2c(COc3ccc4c(c3)CCCC4)nnc2SC1 | no (0)
19. CCOc1nc(OCC)nc(-c2cccn2-c2ccccc2)n1 | no (0)
20. COC(=O)[C@H](Cc1c[nH]c2ccccc12)NP(=O)(O)OC[C@H]1O[C@@H](n2cc(C)c(=O)[nH]c2=O)C[C@@H]1N=[N+]=[N-] | no (0)
21. Cc1c(-c2coc(-c3ccccc3)n2)c(=O)n(-c2ccccc2)n1C | no (0)
